meta.source: patent US20180162947A1

assayed system: T1, recombinant human CSF-1R (form not stated) (human, UniProt P07333 20-512, limits assumed)
T1 construct: for the ELISA no species is stated; also called recombinant CSF-1R; recombinant CSF-1R protein
T1 sequence (P07333 20-512 limits assumed): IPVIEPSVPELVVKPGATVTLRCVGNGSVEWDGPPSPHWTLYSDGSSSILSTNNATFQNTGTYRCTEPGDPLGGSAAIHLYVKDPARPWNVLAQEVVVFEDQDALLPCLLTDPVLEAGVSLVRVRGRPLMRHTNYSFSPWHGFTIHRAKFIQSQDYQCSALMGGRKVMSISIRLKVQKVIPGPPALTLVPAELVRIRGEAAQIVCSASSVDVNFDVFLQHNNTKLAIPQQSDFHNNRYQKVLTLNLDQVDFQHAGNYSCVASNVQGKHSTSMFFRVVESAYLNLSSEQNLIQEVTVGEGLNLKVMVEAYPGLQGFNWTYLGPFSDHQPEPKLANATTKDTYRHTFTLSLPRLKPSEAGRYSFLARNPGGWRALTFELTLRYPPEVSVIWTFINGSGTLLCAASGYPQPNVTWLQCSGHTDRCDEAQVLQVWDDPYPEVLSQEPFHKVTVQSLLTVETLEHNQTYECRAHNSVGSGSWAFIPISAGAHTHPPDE
experimental protocol: BIAcore, humanisation stage, crude cell supernatant
reported property: koff (s⁻¹)
Note: unit s⁻¹ is implicit; provide only the numeric part.

Sample records with koff:
INPUT: Answer with the recorded koff for the binder listed here: 969gH1gL7 (antibody, human IgG4 S228P, kappa, name in Kabat numbering, V domains shown, Humanised IgG4 (S241P)/kappa; position is Kabat) VH: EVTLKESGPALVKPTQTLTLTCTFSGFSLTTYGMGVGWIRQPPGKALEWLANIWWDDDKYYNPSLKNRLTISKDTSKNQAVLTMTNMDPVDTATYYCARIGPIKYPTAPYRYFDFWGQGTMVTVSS VL: DIQMTQSPSSLSASVGDRVTITCLASEDIYDNLAWYQQKPGKAPKLLIYYASSLQDGVPSRFSGSGSGTDYTLTISSLQPEDFATYYCLQDSEYPWTFGGGTKVEIKR
OUTPUT: 5e-06

INPUT: Answer with the recorded koff for the binder listed here: 969gH1gL3 (antibody, human IgG4 S228P, kappa, name in Kabat numbering, V domains shown, Humanised IgG4 (S241P)/kappa; positions are Kabat) VH: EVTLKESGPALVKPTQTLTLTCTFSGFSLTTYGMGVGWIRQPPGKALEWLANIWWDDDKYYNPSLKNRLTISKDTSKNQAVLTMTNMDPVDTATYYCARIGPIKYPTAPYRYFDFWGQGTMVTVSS VL: DIQMTQSPSSLSASVGDRVTITCLASEDIYDNLAWYQKKPGKAPKLLIYYASSLQDGVPSRFSGSGSGTDFTLTISSLQPEDFATYFCLQDSEYPWTFGGGTKVEIKR
OUTPUT: 5e-06

INPUT: Answer with the recorded koff for the binder listed here: 969gH1gL4 (antibody, human IgG4 S228P, kappa, name in Kabat numbering, V domains shown, Humanised IgG4 (S241P)/kappa; positions are Kabat) VH: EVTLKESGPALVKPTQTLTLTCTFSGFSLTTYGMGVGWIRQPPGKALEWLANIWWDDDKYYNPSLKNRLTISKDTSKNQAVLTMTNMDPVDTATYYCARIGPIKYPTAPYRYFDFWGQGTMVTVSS VL: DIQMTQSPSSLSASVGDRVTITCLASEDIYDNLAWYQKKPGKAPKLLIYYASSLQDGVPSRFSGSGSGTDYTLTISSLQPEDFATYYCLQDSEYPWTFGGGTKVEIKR
OUTPUT: 5e-06

From here, focus on the item given below.
INPUT: Answer with the recorded koff for the binder listed here: 969gH2gL3 (antibody, human IgG4 S228P, kappa, name in Kabat numbering, V domains shown, Humanised IgG4 (S241P)/kappa; positions are Kabat) VH: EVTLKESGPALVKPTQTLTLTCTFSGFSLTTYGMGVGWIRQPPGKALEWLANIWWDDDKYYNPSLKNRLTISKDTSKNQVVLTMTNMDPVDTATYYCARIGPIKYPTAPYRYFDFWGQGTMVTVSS VL: DIQMTQSPSSLSASVGDRVTITCLASEDIYDNLAWYQKKPGKAPKLLIYYASSLQDGVPSRFSGSGSGTDFTLTISSLQPEDFATYFCLQDSEYPWTFGGGTKVEIKR
OUTPUT: 7.29e-06
